assayed.system: UniProtKB P16083
Sequence (P16083 whole entry): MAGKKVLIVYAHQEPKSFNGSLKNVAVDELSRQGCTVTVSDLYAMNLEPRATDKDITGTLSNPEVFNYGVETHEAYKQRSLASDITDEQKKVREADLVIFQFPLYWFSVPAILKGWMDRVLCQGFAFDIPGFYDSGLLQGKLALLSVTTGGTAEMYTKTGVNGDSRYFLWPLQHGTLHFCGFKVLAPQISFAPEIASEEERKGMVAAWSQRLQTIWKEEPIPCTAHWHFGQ
protocol.details: Inhibition of recombinant human NQO2 assessed as change in rate of decolouration of DCPIP measured over 1 min by spectrophotometric method
property.measured: IC50 (µM)
Number in µM, nothing else.

record.smiles	property.measured	numeric.readout
N=C(N)c1ccc(-c2nc(-c3ccccc3)c[nH]2)cc1	IC50	1.11
CC(=O)Nc1cccc(-c2ccc(-c3ccccc3)o2)c1	IC50	1.14
N=C(N)c1ccc(-c2ccc(-c3ccccc3)s2)cc1	IC50	0.773

// next item, IC50 requested
Reported IC50 for CC(=O)Nc1cccc(-c2ccc(-c3ccccc3)s2)c1 was 2

The measurements presented in this section are drawn from ChEMBL document CHEMBL4219166.
